The values you see were collected from ChEMBL document CHEMBL1140624.

For each entry below, report its IC50 value.
- System: MDA-MB-231
- Protocol Notes: Cytotoxicity against ERalpha negative human MDA-MB-231 cells
- Type: functional, cell-based
Give the value, in units of nM, as a plain number.

// query IC50 value for entry CC(=O)O[C@H]1C(=O)[C@@]2(C)[C@H]([C@H](OC(=O)c3ccccc3)[C@]3(O)C[C@H](OC(=O)[C@H](O)[C@@H](NC(=O)c4ccccc4)c4ccccc4)C(C)=C1C3(C)C)[C@]1(OC(C)=O)CO[C@@H]1C[C@@H]2O [PACLITAXEL]
4.5

// query IC50 value for entry "CC(=O)O[C@H]1C(=O)[C@@]2(C)[C@H]([C@H](OC(=O)c3ccccc3)[C@]3(O)C[C@H](OC(=O)[C@@H](OC(=O)CCC(=O)O[C@@H]4C[C@]5(C)[C@@H](O)CC[C@H]5[C@@H]5CCc6cc(O)ccc6[C@H]54)[C@@H](NC(=O)c4ccccc4)c4ccccc4)C(C)=C1C3(C)C)[C@]1(OC(C)=O)CO[C@@H]1C[C@@H]2O"
304

// query IC50 value for entry "CC(=O)O[C@H]1C(=O)[C@@]2(C)[C@H]([C@H](OC(=O)c3ccccc3)[C@]3(O)C[C@H](OC(=O)[C@H](OC(=O)N(C)CCNC(=O)[C@H](CCCCN)NC(=O)[C@H](Cc4ccccc4)NC(=O)[C@H](N)C(C)C)[C@@H](NC(=O)c4ccccc4)c4ccccc4)C(C)=C1C3(C)C)[C@]1(OC(C)=O)CO[C@@H]1C[C@@H]2O.Cl"
4.5

// query IC50 value for entry "CC(=O)O[C@H]1C(=O)[C@@]2(C)[C@H]([C@H](OC(=O)c3ccccc3)[C@]3(O)C[C@H](OC(=O)[C@H](OC(=O)NCCNC(=O)[C@H](CCCCN)NC(=O)[C@H](Cc4ccccc4)NC(=O)[C@@H](C)N)[C@@H](NC(=O)c4ccccc4)c4ccccc4)C(C)=C1C3(C)C)[C@]1(OC(C)=O)CO[C@@H]1C[C@@H]2O.Cl"
4.5

// query IC50 value for entry "CC(=O)O[C@H]1C(=O)[C@@]2(C)[C@H]([C@H](OC(=O)c3ccccc3)[C@]3(O)C[C@H](OC(=O)[C@H](OC(=O)CCC(=O)O[C@@H]4C[C@]5(C)[C@@H](O)CC[C@H]5[C@@H]5CCc6cc(O)ccc6[C@H]54)[C@@H](NC(=O)c4ccccc4)c4ccccc4)C(C)=C1C3(C)C)[C@]1(OC(C)=O)CO[C@@H]1C[C@@H]2O"
51

// query IC50 value for entry "CC(=O)O[C@H]1C(=O)[C@@]2(C)[C@H]([C@H](OC(=O)c3ccccc3)[C@]3(O)C[C@H](OC(=O)[C@H](OC(=O)N(C)CCN(C)C(=O)[C@H](CCCCN)NC(=O)[C@H](CC(C)C)NC(=O)[C@H](N)C(C)C)[C@@H](NC(=O)c4ccccc4)c4ccccc4)C(C)=C1C3(C)C)[C@]1(OC(C)=O)CO[C@@H]1C[C@@H]2O.Cl"
4.5

// query IC50 value for entry "CC(=O)O[C@H]1C(=O)[C@@]2(C)[C@H]([C@H](OC(=O)c3ccccc3)[C@]3(O)C[C@H](OC(=O)[C@H](OC(=O)N(C)CCN(C)C(=O)[C@H](CCCCN)NC(=O)[C@H](Cc4ccccc4)NC(=O)[C@@H](C)N)[C@@H](NC(=O)c4ccccc4)c4ccccc4)C(C)=C1C3(C)C)[C@]1(OC(C)=O)CO[C@@H]1C[C@@H]2O.Cl"
4.5

---

- Protocol Notes: Aqueous solubility of the compound
- Format: physicochemical
- Experimental Parameters: aqueous solution
Result Type: solubility
Quick note: number first, unit second.

// query solubility value for entry CC(=O)O[C@H]1C(=O)[C@@]2(C)[C@H]([C@H](OC(=O)c3ccccc3)[C@]3(O)C[C@H](OC(=O)[C@H](O)[C@@H](NC(=O)c4ccccc4)c4ccccc4)C(C)=C1C3(C)C)[C@]1(OC(C)=O)CO[C@@H]1C[C@@H]2O [PACLITAXEL]
10 µg/mL

// query solubility value for entry "CC(=O)O[C@H]1C(=O)[C@@]2(C)[C@H]([C@H](OC(=O)c3ccccc3)[C@]3(O)C[C@H](OC(=O)[C@H](OC(=O)C[C@H](O)C(=O)O)[C@@H](NC(=O)c4ccccc4)c4ccccc4)C(C)=C1C3(C)C)[C@]1(OC(C)=O)CO[C@@H]1C[C@@H]2O"
200 µg/mL

// query solubility value for entry "CC(=O)O[C@H]1C(=O)[C@]2(C)[C@@H](OC(=O)C[C@H](O)C(=O)O)C[C@H]3OC[C@@]3(OC(C)=O)[C@H]2[C@H](OC(=O)c2ccccc2)[C@]2(O)C[C@H](OC(=O)[C@H](OC(=O)C[C@H](O)C(=O)O)[C@@H](NC(=O)c3ccccc3)c3ccccc3)C(C)=C1C2(C)C"
500 µg/mL

// query solubility value for entry "CC(=O)O[C@H]1C(=O)[C@@]2(C)[C@H]([C@H](OC(=O)c3ccccc3)[C@]3(O)C[C@H](OC(=O)[C@H](OC(=O)C[C@H](O)C(=O)[O-])[C@@H](NC(=O)c4ccccc4)c4ccccc4)C(C)=C1C3(C)C)[C@]1(OC(C)=O)CO[C@@H]1C[C@@H]2O.[Na+]"
600 µg/mL

---

For each entry below, report its Ratio IC50 value.
- Test system: LoVo
- Protocol Notes: Ratio of IC50 of drug for human LoVo cells to IC50 of taxol for human LoVo cells
- Assay type: functional
Could you respond with only the numeric value?

Could you share what Ratio IC50 was measured for "Cn1c(=O)oc2ccc([N+](=O)[O-])cc21" , tested on LoVo?
3000

Could you share what Ratio IC50 was measured for CC(=O)O[C@H]1C(=O)[C@@]2(C)[C@H]([C@H](OC(=O)c3ccccc3)[C@]3(O)C[C@H](OC(=O)C(OC(=O)N(C)CCN(C)C(=O)OCc4ccc(O[C@@H]5O[C@H](C(=O)O)[C@@H](O)[C@H](O)[C@H]5O)c(N)c4)[C@@H](NC(=O)c4ccccc4)c4ccccc4)C(C)=C1C3(C)C)[C@]1(OC(C)=O)CO[C@@H]1C[C@@H]2O (some centres undefined) , tested on LoVo?
153

Could you share what Ratio IC50 was measured for "CC(=O)O[C@H]1C(=O)[C@@]2(C)[C@H]([C@H](OC(=O)c3ccccc3)[C@]3(O)C[C@H](OC(=O)[C@H](OC(=O)N(C)CCN(C)C(=O)OCc4ccc(O[C@@H]5O[C@H](C(=O)O)[C@@H](O)[C@H](O)[C@H]5O)c(N)c4)[C@@H](NC(=O)OC(C)(C)C)c4ccccc4)C(C)=C1C3(C)C)[C@]1(OC(C)=O)CO[C@@H]1C[C@@H]2O" , tested on LoVo?
187

Could you share what Ratio IC50 was measured for "CC(=O)O[C@H]1C(=O)[C@@]2(C)[C@H]([C@H](OC(=O)c3ccccc3)[C@]3(O)C[C@H](OC(=O)[C@H](OC(=O)N(C)c4cc([N+](=O)[O-])ccc4O[C@@H]4O[C@H](C(=O)O)[C@@H](O)[C@H](O)[C@H]4O)[C@@H](NC(=O)c4ccccc4)c4ccccc4)C(C)=C1C3(C)C)[C@]1(OC(C)=O)CO[C@@H]1C[C@@H]2O" , tested on LoVo?
722

---

- Test system: EVSA-T
- Protocol Notes: Cytotoxicity against human EVSA-T cells
- Type: functional, cell-based
For each entry below, report its IC50 value.

// query IC50 value for entry "CC(=O)O[C@H]1C(=O)[C@@]2(C)[C@H]([C@H](OC(=O)c3ccccc3)[C@]3(O)C[C@H](OC(=O)[C@H](OC(=O)OC/C=C/c4ccc([N+](=O)[O-])cc4)[C@@H](NC(=O)c4ccccc4)c4ccccc4)C(C)=C1C3(C)C)[C@]1(OC(C)=O)CO[C@@H]1C[C@@H]2O"
0.221 µg/mL

// query IC50 value for entry "CC(=O)O[C@H]1C(=O)[C@@]2(C)[C@H]([C@H](OC(=O)c3ccccc3)[C@]3(O)C[C@H](OC(=O)[C@H](OC(=O)N(C)CCNC(=O)[C@H](CCCCN)NC(=O)[C@H](Cc4ccccc4)NC(=O)[C@H](N)C(C)C)[C@@H](NC(=O)c4ccccc4)c4ccccc4)C(C)=C1C3(C)C)[C@]1(OC(C)=O)CO[C@@H]1C[C@@H]2O.Cl"
> 0.063 µg/mL
